Origin of values: paper PMC12051234

Molecular target: T1, SpnNrdR (Streptococcus pneumoniae TIGR4, UniProt P67318 1-157)
T1 sequence: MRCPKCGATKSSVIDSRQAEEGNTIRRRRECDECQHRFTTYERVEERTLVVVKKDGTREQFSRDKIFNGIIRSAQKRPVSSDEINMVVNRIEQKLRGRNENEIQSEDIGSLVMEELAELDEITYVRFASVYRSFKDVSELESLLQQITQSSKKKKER
Assay: MST; dATP + ATP; MST, temperature not stated. Lmo: 25 mM Bis-Tris propane pH 6.5, 100 mM KCl, 5 mM MgCl2, 5% glycerol, 1 mM DTT, 0.05% Tween 20, one nucleotide 1 mM or two at 0.5 mM each; Spn: 25 mM HEPES pH 7.2, 250 mM NaCl, 2.5 mM MgCl2, 15% glycerol, 2 mM DTT, 0.1 mg/mL BSA, 0.05% Tween 20, 0.5 mM ATP and/or dATP; Eco: 25 mM Tris pH 8.5, 100 mM NaCl, 7 mM MgCl2, 1 mM DTT, 0.025% Tween 20, 1 mM ATP + 1 mM dATP; …
Details: protein: recombinant; tags: C-terminal His6; chain copies: 4; label: 5'-Cy5 sense; blunt
pKd: −log10 of the molar value.
pKd listing for selected binders.
OBSERVATION_TYPE: pKd

>>> observed_measurement("Synt 15 bp spacer (dsDNA) DNA 1: GCCAAACACAACATCTAGTGGTTGGATAGCGTGAGCACACAACATCTAGTGGACCTC DNA 2: GAGGTCCACTAGATGTTGTGTGCTCACGCTATCCAACCACTAGATGTTGTGTTTGGC")
7.26
>>> observed_measurement("Sth nrdDG (16 bp spacer) (dsDNA) DNA 1: TCGAAAATCAATATATAGTGGTTGAGATAAAAATATACCACAATATATTGATTTTCCT DNA 2: AGGAAAATCAATATATTGTGGTATATTTTTATCTCAACCACTATATATTGATTTTCGA")
5.94
>>> observed_measurement("Synt 20 bp spacer (dsDNA) DNA 1: GCCAAACACAACATCTAGTGGTTGGATAGCGTGACAGTAGCACACAACATCTAGTGGACCTC DNA 2: GAGGTCCACTAGATGTTGTGTGCTACTGTCACGCTATCCAACCACTAGATGTTGTGTTTGGC")
4.91
>>> observed_measurement("Synt 12 bp spacer (dsDNA) DNA 1: GCCAAACACAACATCTAGTGGTTGGATAGGAGCACACAACATCTAGTGGACCTC DNA 2: GAGGTCCACTAGATGTTGTGTGCTCCTATCCAACCACTAGATGTTGTGTTTGGC")
5.30
>>> observed_measurement("Synt 13 bp spacer (dsDNA) DNA 1: GCCAAACACAACATCTAGTGGTTGGATAGTGAGCACACAACATCTAGTGGACCTC DNA 2: GAGGTCCACTAGATGTTGTGTGCTCACTATCCAACCACTAGATGTTGTGTTTGGC")
5.40
